- Tested on: OVCAR-3
- EXPERIMENT SUMMARY: NCI tumour cell line growth inhibition, 48 h
Active and inactive are the calls of the source. Rule as the data show it: active = GI50 up to about 1.1 µM and inactive = higher.
Form field: GI50 (one value per entry).

{"COMPOUND": "Cn1cc(NC(=O)[C@H]2CCC(N)=N2)cc1C(=O)NCCC(=N)N", "GI50": "> 100 µM (inactive)"}
{"COMPOUND": "O=c1ssc2ncccc12", "GI50": "18.4 µM (inactive)"}
{"COMPOUND": "O=C(c1ccco1)n1c2ccc(Br)cc2c2nc3ccccc3nc21", "GI50": "47.5 µM (inactive)"}
{"COMPOUND": "O=C(O)C/N=C(\\C(=N\\CC(=O)O)c1ccccc1)c1ccccc1", "GI50": "> 100 µM (inactive)"}
{"COMPOUND": "CC1=C2C(=O)O[C@@H](c3ccoc3)[C@]2(C)CCC1=O [FRAXINELLONONE]", "GI50": "> 100 µM (inactive)"}
{"COMPOUND": "Cc1ccccc1N(CCC#N)C1=NN(C(=O)CC(=O)Nc2ccccc2)C(c2ccccc2)C1 (stereo unspecified)", "GI50": "> 100 µM (inactive)"}
{"COMPOUND": "Cc1cc(-c2ccc(/N=N/c3ccc4c(S(=O)(=O)O)cc(S(=O)(=O)O)c(N)c4c3O)c(C)c2)ccc1/N=N/c1ccc2c(S(=O)(=O)O)cc(S(=O)(=O)O)c(N)c2c1O [EVANS BLUE FREE ACID]", "GI50": "> 100 µM (inactive)"}
{"COMPOUND": "Cc1ccc(C2(c3ccc(C)c(O)c3C)CCN(C)CC2)c(C)c1O", "GI50": "54 µM (inactive)"}
{"COMPOUND": "OCCCC(O)(c1ccccc1)c1ccccc1", "GI50": "> 100 µM (inactive)"}
{"COMPOUND": "c1ccc(CN2CCCCC(Sc3ccccc3)CC2)cc1 (stereo unspecified)", "GI50": "33.9 µM (inactive)"}
{"COMPOUND": "O=C(N/N=C/c1ccccc1)c1c(F)c(F)c(F)c(F)c1F", "GI50": "> 100 µM (inactive)"}

----------
- Test system: HT-29
- EXPERIMENT SUMMARY: NCI tumour cell line growth inhibition, 48 h
Calls of active or inactive are those of the source. No stated cut-off is given here; in the data, active = GI50 up to about 1.1 µM and inactive = higher.
Reported GI50 by item:
REPORTED PROPERTY: GI50

{"COMPOUND": "Cc1cc2cc3c(C)cc(=O)oc3c(C)c2o1", "VALUE": "> 100 µM (inactive)"}
{"COMPOUND": "O=C(Nc1c(C(=O)NC2CCCCC2)[nH]c(=O)[nH]c1=O)c1ccc(Cl)cc1", "VALUE": "> 100 µM (inactive)"}
{"COMPOUND": "Fc1cccc(F)c1C1SCc2nc3cc(Cl)c(Cl)cc3n21 (centres undefined)", "VALUE": "> 100 µM (inactive)"}
{"COMPOUND": "O=C(c1ccco1)n1c2ccc(Br)cc2c2nc3ccccc3nc21", "VALUE": "81.5 µM (inactive)"}
{"COMPOUND": "Cc1ccc(NC(=O)C(Cc2c[nH]c3ccccc23)NC(=O)Oc2ccccc2)cc1C (centres undefined)", "VALUE": "41.3 µM (inactive)"}
{"COMPOUND": "CC(O)c1ccc[n+](Cc2ccccc2)c1 (centres undefined)", "VALUE": "> 400 µM (inactive)"}
{"COMPOUND": "COC(=O)c1ccccc1C1=C([N+](=O)[O-])C(c2cccc(Br)c2)C(C#N)=C(N)O1 (centres undefined)", "VALUE": "43.5 µM (inactive)"}
{"COMPOUND": "CCOC(=O)C(NCc1ccc2c(c1)OCO2)(NC(=O)c1ccccc1)C(F)(F)F (centres undefined)", "VALUE": "> 100 µM (inactive)"}
{"COMPOUND": "CC12c3c4cc(Br)cc3Oc3cc(Br)cc(c31)Oc1cc(Br)cc(c12)O4", "VALUE": "76.9 µM (inactive)"}
{"COMPOUND": "CNC(=O)Oc1ccc(C(=S)Nc2ccc(Br)cc2)cc1", "VALUE": "19.9 µM (inactive)"}
{"COMPOUND": "O=C(c1ccc(Cl)cc1)N(C(=S)N1CCN(c2ccccn2)CC1)c1ccccc1", "VALUE": "> 100 µM (inactive)"}
{"COMPOUND": "c1ccc2c(c1)CCCC/C2=N/OCC1CO1 (centres undefined)", "VALUE": "42.1 µM (inactive)"}
{"COMPOUND": "COc1cccc(Nc2nc(N)nc(N)c2N=O)c1", "VALUE": "21.8 µM (inactive)"}
{"COMPOUND": "NCCCOc1ccc([N+](=O)[O-])cc1Cl", "VALUE": "> 100 µM (inactive)"}
{"COMPOUND": "CCCCOC(=O)C1C(c2ccc(Cl)cc2)NC(c2ccc(Cl)cc2)C(C(=O)OCCCC)S1(=O)=O (centres undefined)", "VALUE": "> 100 µM (inactive)"}
{"COMPOUND": "CC(=O)NCCC1CN(C(=O)/C=C/I)c2ccccc21 (centres undefined)", "VALUE": "5.51 µM (inactive)"}
{"COMPOUND": "COc1cc2c(cc1OCc1ccccc1)CNCC2", "VALUE": "> 100 µM (inactive)"}
{"COMPOUND": "COc1cc(C=C2C(=O)OC(C)(C)OC2=O)cc(OC)c1OC", "VALUE": "> 100 µM (inactive)"}
{"COMPOUND": "O=c1[nH]nc(-c2ccccc2)n1/N=C/c1ccncc1", "VALUE": "> 100 µM (inactive)"}
{"COMPOUND": "Cc1nnc2n1-c1ccccc1C(=S)N1CSCC21 (centres undefined)", "VALUE": "> 100 µM (inactive)"}
{"COMPOUND": "Cn1cnc([N+](=O)[O-])c1Sc1nnc(C(F)(F)F)n1C", "VALUE": "35.7 µM (inactive)"}
{"COMPOUND": "COc1cccc(CSCC(=O)O)c1", "VALUE": "> 100 µM (inactive)"}
{"COMPOUND": "N=c1c2ccccc2nc2oc3ccc(Cl)cc3n12", "VALUE": "20.3 µM (inactive)"}
{"COMPOUND": "OCC(O)COCn1cc(Cn2ncc3c(NCc4ccccc4)ncnc32)nn1 (centres undefined)", "VALUE": "> 100 µM (inactive)"}

----------
- System: SK-MEL-2
- EXPERIMENT SUMMARY: NCI tumour cell line growth inhibition, 48 h
Activity calls are given as the source filed them. No stated cut-off is given here; in the data, active = GI50 up to about 1.1 µM and inactive = higher.
Classes used: yes (1) (active), no (0) (inactive)

{"COMPOUND": "COc1cc(CNCc2cc(OC)c(OC)c(OC)c2)cc(OC)c1OC", "ANSWER LABEL": "no (0)"}
{"COMPOUND": "COC(=O)C(Cl)=C1CC1", "ANSWER LABEL": "no (0)"}
{"COMPOUND": "CCOC(=O)c1cc(C2CCN(Cc3ccccc3)C2=S)c(C(=O)C=[N+]=[N-])[nH]1 (stereo not given)", "ANSWER LABEL": "no (0)"}
{"COMPOUND": "CCCCCCCCCCCCCCCC(=O)Nc1ccn(C2OC(CO)C(O)C2O)c(=O)n1 (stereo not given)", "ANSWER LABEL": "no (0)"}
{"COMPOUND": "CC1=Nc2ccccc2/C1=C\\c1c(C)[nH]c2ccccc12", "ANSWER LABEL": "no (0)"}
{"COMPOUND": "COc1ccc(/N=C(\\C)c2ccncc2)cc1", "ANSWER LABEL": "no (0)"}
{"COMPOUND": "O=C(O)C(O)c1ccc(F)cc1 (stereo not given)", "ANSWER LABEL": "no (0)"}
{"COMPOUND": "C/C=C/C1=CC(=O)C(O)C1O (stereo not given)", "ANSWER LABEL": "no (0)"}
{"COMPOUND": "COc1cc2c(cc1OCCCCCN1C(=O)c3cccc4cccc(c34)C1=O)N=C[C@@H]1CCCN1C2=O", "ANSWER LABEL": "yes (1)"}
{"COMPOUND": "CC(=O)NC1C(OC(C)C(=O)NC(C)C(=O)NC(CCC(=O)NCCCCCNc2ccc([N+](=O)[O-])c3[nH]c4ccccc4c(=O)c23)C(N)=O)C(O)C(CO)OC1(C)OCc1ccccc1 (stereo not given)", "ANSWER LABEL": "no (0)"}
{"COMPOUND": "CCOc1ccc(/C=C2/C(=O)N=C(N)N=C2N)cc1OCC", "ANSWER LABEL": "no (0)"}
{"COMPOUND": "Cc1ccc(Cl)c2c(=O)cc(-c3ccccc3)[nH]c12", "ANSWER LABEL": "no (0)"}
{"COMPOUND": "COc1cc2c(c(OC)c1OC)-c1ccc(SC)c(=O)cc1[C@@H](NCc1ccc([N+](=O)[O-])cc1)CC2", "ANSWER LABEL": "yes (1)"}
{"COMPOUND": "CCC(=O)CC(=O)CCC(=O)Nc1cc(C)ccc1C", "ANSWER LABEL": "no (0)"}
{"COMPOUND": "CSc1c(CC(=O)Nc2ccc(Cl)cc2)n(Cc2ccccc2)c2ccccc12", "ANSWER LABEL": "no (0)"}
{"COMPOUND": "CCCNC(=O)N(C)C(=O)N1N=C(c2ccccc2)C1c1ccccc1 (stereo not given)", "ANSWER LABEL": "no (0)"}
{"COMPOUND": "CSc1nc(Cl)c2c(n1)Sc1nc3ccccc3n1N=C2", "ANSWER LABEL": "no (0)"}
{"COMPOUND": "C=C(C)[C@H]1C=C[C@@H](OC(C)=O)[C@@]2(COC(C)=O)[C@H](OC(=O)CCC)[C@H]3[C@@H](OC(C)=O)[C@@H](C)C[C@]3(O)C(=O)[C@@](C)(OC(C)=O)[C@H]12", "ANSWER LABEL": "no (0)"}
{"COMPOUND": "CCOC(=O)C(O)(C(=O)OCC)c1cc(C(C)(C)C)c(O)c(C(C)(C)C)c1", "ANSWER LABEL": "no (0)"}
{"COMPOUND": "COc1nc2c(c(O)c(C)c(=O)n2OC2OC(COC(C)=O)C(OC(C)=O)C(OC(C)=O)C2OC(C)=O)c(=O)n1C (stereo not given)", "ANSWER LABEL": "no (0)"}
